# protocol_text: Lipophilicity, log P of the compound
# Format: physicochemical
# experimental_conditions: octanol/water
test_readout: logP

Using the record for NC(N)=N/N=C/c1ccc(Cl)c(Cl)c1 , report its logP.
2.8

* * *

EC50: recorded values
# tested_target: Neuropeptide FF receptor 1 (Homo sapiens, UniProt Q9GZQ6)
# Sequence (Q9GZQ6 whole entry): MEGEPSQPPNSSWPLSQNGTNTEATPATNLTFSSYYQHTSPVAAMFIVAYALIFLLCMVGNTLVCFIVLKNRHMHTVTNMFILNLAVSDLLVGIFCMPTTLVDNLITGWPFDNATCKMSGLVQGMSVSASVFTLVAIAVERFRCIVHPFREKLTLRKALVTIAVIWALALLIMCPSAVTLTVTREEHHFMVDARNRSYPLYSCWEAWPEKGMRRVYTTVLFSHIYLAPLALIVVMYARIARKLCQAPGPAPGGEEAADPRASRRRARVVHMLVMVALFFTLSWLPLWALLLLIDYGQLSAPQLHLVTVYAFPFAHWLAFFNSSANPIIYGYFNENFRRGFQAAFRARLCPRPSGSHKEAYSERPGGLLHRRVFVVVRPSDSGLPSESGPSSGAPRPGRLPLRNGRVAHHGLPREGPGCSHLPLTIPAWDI
# protocol_text: Agonist activity at human NPFF1 receptor expressed in cells assessed as beta-galactosidase levels after 5 days
The answer is to be given in nM; state only the numeric part.

CC(C)c1ccccc1-c1ccc(/C=N/NC(=N)N)o1 : 158
Cc1ccccc1-c1ccc(/C=N/NC(=N)N)o1 : 79.4
N=C(N)N/N=C/c1ccc(-c2ccccc2C(F)(F)F)o1 : 39.8
Cn1c(/C=N/NC(=N)N)ccc1-c1ccccc1C(F)(F)F : 316
N=C(N)N/N=C(\c1ccccc1)c1ccc(Cl)c(Cl)c1 : 794

# input for lookup
Notebook: pull reported EC50 for Neuropeptide FF receptor 1 (Homo sapiens, UniProt Q9GZQ6), entry N=C(N)N/N=C/c1ccc(-c2ccccc2C(F)(F)F)s1
126
